# EXPERIMENTAL_TARGET: human orexin-1 receptor (Homo sapiens, UniProt O43613)
# Sequence (O43613 whole entry): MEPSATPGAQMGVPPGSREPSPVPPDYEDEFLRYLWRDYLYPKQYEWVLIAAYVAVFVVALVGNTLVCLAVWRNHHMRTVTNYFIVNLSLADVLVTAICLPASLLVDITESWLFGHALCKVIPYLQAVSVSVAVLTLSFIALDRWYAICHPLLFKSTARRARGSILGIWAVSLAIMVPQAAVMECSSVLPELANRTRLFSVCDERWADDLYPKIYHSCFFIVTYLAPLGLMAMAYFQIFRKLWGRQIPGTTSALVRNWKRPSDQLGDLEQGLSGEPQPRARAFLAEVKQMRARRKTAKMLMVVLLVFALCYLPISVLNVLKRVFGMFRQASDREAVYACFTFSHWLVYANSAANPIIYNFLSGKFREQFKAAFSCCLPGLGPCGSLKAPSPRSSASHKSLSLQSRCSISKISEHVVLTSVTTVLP
# ASSAY_DETAILS: FLIPR intracellular calcium assay, orexin receptor antagonistic activity (OX1)
# EXPERIMENTAL_CONDITIONS: CHO cells expressing human orexin-1 receptor; agonist 3 nM orexin-A; normalized to on-plate reference; * geomean n = 5, *2 geomean n = 2
# Description: The orexin receptor antagonistic activity of the compounds of formula (I) is determined in accordance with the following experimental method. […] Within the Fluorescent Imaging Plate Reader (FLIPR Tetra, Molecular Devices), antagonists are added to the plate in a volume of 10 μl/well, incubated for 10 min and finally 10 μl/well of agonist is added. […] The calculated IC50 values of the compounds may fluctuate depending on the daily cellular assay performance. […]
ENDPOINT_NAME: IC50 (nM)

MOLECULE: COc1ccc(CN2C(=O)C(C)(C)OC2c2c(OC)cccc2OC)cc1 (stereo not drawn)
RESULT_VALUE: 188
--
MOLECULE: COc1cccc(OC)c1C1OC(C)(C)C(=O)N1Cc1ccc(Oc2ccccc2)nc1 (stereo not drawn)
RESULT_VALUE: 139

====

# EXPERIMENTAL_TARGET: UniProt:O43614
# Sequence (O43614 whole entry): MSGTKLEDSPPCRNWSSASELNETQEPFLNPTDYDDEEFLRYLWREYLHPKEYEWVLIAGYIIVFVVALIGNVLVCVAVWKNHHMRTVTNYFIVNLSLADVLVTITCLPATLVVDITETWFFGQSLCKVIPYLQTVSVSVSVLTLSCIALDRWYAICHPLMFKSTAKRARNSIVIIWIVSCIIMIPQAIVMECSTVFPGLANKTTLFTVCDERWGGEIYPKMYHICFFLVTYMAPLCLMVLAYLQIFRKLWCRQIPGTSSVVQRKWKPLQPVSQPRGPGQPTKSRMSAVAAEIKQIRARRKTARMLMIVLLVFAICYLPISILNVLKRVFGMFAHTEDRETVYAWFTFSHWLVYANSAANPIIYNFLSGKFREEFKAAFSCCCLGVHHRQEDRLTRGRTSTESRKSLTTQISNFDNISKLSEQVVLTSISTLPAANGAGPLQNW
# ASSAY_DETAILS: FLIPR intracellular calcium assay, orexin receptor antagonistic activity (OX2)
# EXPERIMENTAL_CONDITIONS: CHO cells expressing human orexin-2 receptor; agonist 3 nM orexin-A; normalized to on-plate reference; * geomean n = 5, *2 geomean n = 2
# Method: The orexin receptor antagonistic activity of the compounds of formula (I) is determined in accordance with the following experimental method. […] Within the Fluorescent Imaging Plate Reader (FLIPR Tetra, Molecular Devices), antagonists are added to the plate in a volume of 10 μl/well, incubated for 10 min and finally 10 μl/well of agonist is added. […] The calculated IC50 values of the compounds may fluctuate depending on the daily cellular assay performance. […]
pIC50: −log10 of the molar value.
ENDPOINT_NAME: pIC50

Some compounds with recorded pIC50:
COMPOUND: COc1cccc(OC)c1C1O[C@H](C)C(=O)N1Cc1ccc(OC(F)(F)F)cc1 (some centres unmarked)
pIC50: 6.67
--
COMPOUND: COc1cccc(OC(C)C)c1C1OC(C)(C)C(=O)N1Cc1ccc(Oc2ccccc2)cc1 (centres unmarked)
pIC50: 6.92

a: CCOc1ccccc1C1OCC(=O)N1Cc1cccc(C(F)(F)F)c1 (centres unmarked)
b: COc1cccc(OC)c1C1OCC(=O)N1Cc1ccc(OC(F)(F)F)c(F)c1 (centres unmarked)
Look at a and b . Which one has the lower recorded pIC50 number? Answer with the label corresponding to your selection.
a
(a: 6.34, b: 7.00)

====

# EXPERIMENTAL_TARGET: human orexin-1 receptor (Homo sapiens)
# Construct: expressed in transfected cells; host or cells: CHO cells (G418 selection)
# ASSAY_DETAILS: FLIPR intracellular calcium assay, orexin receptor antagonistic activity (OX1)
# Format: cell-based
# EXPERIMENTAL_CONDITIONS: CHO cells expressing human orexin-1 receptor; agonist 3 nM orexin-A; normalized to on-plate reference; * geomean n = 5, *2 geomean n = 2
ENDPOINT_NAME: IC50 (µM)

I: COc1cccc(OC)c1C1OC(C)(C)C(=O)N1Cc1ccc(OCC2CC2)cc1 (stereo not drawn)
II: CCOc1ccccc1C1OCC(=O)N1Cc1ccc(OC(F)(F)F)c(Cl)c1 (stereo not drawn)
III: COc1cccc(OC)c1C1O[C@H](C)C(=O)N1Cc1ccc(OC(F)(F)F)c(F)c1 (stereo partly drawn)
// TODO: order the 3 molecules above by IC50, descending I would appreciate it if you listed the labels in the requested order.
II, I, III
